Biological target: MASP-2 CCP2-SP (Homo sapiens (Human))
Sequence (O00187 445-686): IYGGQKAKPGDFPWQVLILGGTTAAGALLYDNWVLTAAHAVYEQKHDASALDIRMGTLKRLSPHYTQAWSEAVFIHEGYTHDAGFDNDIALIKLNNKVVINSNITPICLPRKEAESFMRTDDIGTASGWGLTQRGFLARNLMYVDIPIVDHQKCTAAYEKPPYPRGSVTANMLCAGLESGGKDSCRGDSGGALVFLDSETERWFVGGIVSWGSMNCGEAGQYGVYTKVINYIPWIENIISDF
Sequence (O00187 364-432 partner): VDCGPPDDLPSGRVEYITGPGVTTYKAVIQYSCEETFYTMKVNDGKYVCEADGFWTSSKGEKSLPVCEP
Experiment: MASP-2 co-crystallization, X-ray crystallography and structure analysis (H-bonds, van der Waals contacts)
Parameters: unit not given beside the values
Conditions: Table A5-1 pharmacophore: distance between elements, S2/S1 region
Description: This example illustrates the preparation of recombinant MASP-2 protein, based on UniProt O00187, human mannan-binding lectin serine protease 2. Expression constructs for human MASP-2 CCP2-SP and CCP2-SP-6HIS were generated for recombinant expression in E. coli cells. […]
Counter-ions that a name gives are not always drawn.

COMPOUND: C[C@H](NC(=O)[C@H]1C[C@@H](c2ccccc2)CCN1)C(=O)NCc1cc(Cl)ccc1O.Cl [1078_3]
d(CA1,O2): 4.54
--
COMPOUND: Cc1nc(N)ccc1CNC(=O)[C@H](C)NC(=O)[C@H]1C[C@H](Cc2ccc3ccccc3c2)CN1 [compound 1338]
d(CA1,O2): 3.80
--
COMPOUND: N=C(N)c1ccc(CNC(=O)[C@@H]2CCN2C(=O)[C@H](NCC(=O)O)C2Cc3ccccc3C2)cc1 [compound 1129]
d(CA1,O2): 4.37
--
COMPOUND: C[C@H](NC(=O)[C@H]1C[C@@H](c2ccccc2)CCN1)C(=O)NCc1cc(Cl)ccc1O.Cl [1078_16]
d(CA1,O2): 4.54
--
COMPOUND: Cc1nc(N)ccc1CNC(=O)[C@H](C)NC(=O)[C@H]1C[C@@H](c2cccc3ccccc23)CCN1.Cl.Cl [1297_4]
d(CA1,O2): 3.67
--
COMPOUND: Cc1cccc([C@H]2CN[C@@H](C(=O)N[C@@H](C)C(=O)NCc3ccc(N)nc3C)C2)c1 [compound 1257, Dihydrochloride]
d(CA1,O2): 4.03
--
COMPOUND: C[C@H](NC(=O)[C@H](N)CCc1cccc(Cl)c1)C(=O)NCc1ccc(C(=N)N)cc1 [compound 1081]
d(CA1,O2): 4.27
--
COMPOUND: N=C(N)c1ccc(CNC(=O)C(CF)NC(=O)[C@H](N)CCc2ccccc2)cc1 (stereo partly shown) [compound 1050, Dihydrochloride]
d(CA1,O2): 4.29
--
COMPOUND: Cc1nc(N)ccc1CNC(=O)C(C)NC(=O)[C@H]1C[C@H](c2cccc(-c3ccccc3)c2)CN1 (stereo in doubt) [compound 1360]
d(CA1,O2): 3.85
--
COMPOUND: C[C@H](NC(=O)[C@H](N)CCc1cc(Cl)cc(Cl)c1)C(=O)NCc1ccc(C(=N)N)cc1 [compound 1118]
d(CA1,O2): 4.33
--
COMPOUND: C[C@H](NC(=O)C1C[C@@H](c2ccccc2)CCN1)C(=O)NCc1ccc(C(=N)N)cc1 (stereo in doubt) [compound 1063]
d(CA1,O2): 3.58
--
COMPOUND: Cc1nc(N)ccc1CNC(=O)[C@H](C)NC(=O)[C@H]1C[C@H](Cc2ccccc2Br)CN1.O=C(O)C(F)(F)F.O=C(O)C(F)(F)F [1372_A]
d(CA1,O2): 3.94
--
COMPOUND: N=C(N)c1ccc(CNC(=O)[C@@H]2CCN2C(=O)[C@H]2Cc3ccccc3CN2)cc1 [compound 1034]
d(CA1,O2): 4.19
--
COMPOUND: C[C@H](NC(=O)[C@H](N)CCc1ccccc1)C(=O)NCc1ccc(C(=N)N)cc1 [compound 1024]
d(CA1,O2): 4.23
--
COMPOUND: C[C@H](NC(=O)[C@H](N)CCCc1ccccc1)C(=O)NCc1ccc(C(=N)N)cc1.Cl.Cl [1042_3]
d(CA1,O2): 4.54
--
COMPOUND: Cc1nc(N)ccc1CNC(=O)[C@H](C)NC(=O)[C@H]1C[C@H](Cc2ccccc2-c2ccccc2)CN1 [compound 1373, Di-trifluoroacetate salt]
d(CA1,O2): 3.86
--
COMPOUND: C[C@H](NC(=O)[C@H]1C[C@@H](c2ccccc2)CCN1)C(=O)NCc1cc(Cl)ccc1O.Cl [1078_4]
d(CA1,O2): 4.61
--
COMPOUND: C[C@H](NC(=O)[C@@H](CCc1ccccc1)NCCCc1ccc(O)cc1)C(=O)NCc1ccc(C(=N)N)cc1.Cl.Cl [1145_B]
d(CA1,O2): 4.42
--
COMPOUND: C[C@H](NC(=O)[C@H]1C[C@@H](c2ccccc2)CCN1)C(=O)NCc1cc(Cl)ccc1O.Cl [1078_2]
d(CA1,O2): 4.62
--
COMPOUND: Cc1nc(N)ccc1CNC(=O)[C@H](C)NC(=O)[C@H]1C[C@@H](c2ccccc2)CCN1C [compound 1441]
d(CA1,O2): 3.96
--
COMPOUND: CC(=O)Nc1ccc(CCNC(CCc2ccccc2)C(=O)NC(C)C(=O)NCc2ccc(C(=N)N)cc2)cc1.Cl.Cl (stereo not shown) [1345_2]
d(CA1,O2): 4.16
--
COMPOUND: C[C@H](NC(=O)[C@H]1C[C@@H](c2ccccc2)CCN1)C(=O)NCc1ccc(C(=N)N)cc1 (stereo in doubt) [compound 1065]
d(CA1,O2): 4.20
--
COMPOUND: C[C@H](NC(=O)[C@H]1C[C@@H](c2ccccc2)CCN1)C(=O)NCc1cc(Cl)ccc1O.Cl [1078_14]
d(CA1,O2): 4.47
--
COMPOUND: Cc1nc(N)ccc1CNC(=O)[C@H](C)NC(=O)[C@H]1C[C@H](Cc2cc(-c3ccccc3)cs2)CN1 [compound 1399, Dihydrochloride]
d(CA1,O2): 3.92
--
COMPOUND: Cc1cc(Cl)cc(CNC(=O)[C@H](C)NC(=O)[C@H]2C[C@H](Cc3ccccc3)CN2)c1O [compound 1307]
d(CA1,O2): 4.57
--
COMPOUND: C[C@H](NC(=O)[C@@H](CCc1ccccc1)NCc1ccc(C(=O)N2CCOCC2)cc1)C(=O)NCc1ccc(C(=N)N)cc1.Cl.Cl [1153_B]
d(CA1,O2): 8.18
--
COMPOUND: C[C@H](NC(=O)[C@H]1Cc2c([nH]c3ccccc23)CN1)C(=O)NCc1ccc(C(=N)N)cc1.Cl.Cl [1097_2]
d(CA1,O2): 4.09
--
COMPOUND: C[C@H](NC(=O)[C@H]1C[C@@H](c2ccccc2)CCN1)C(=O)NCc1cc(Cl)ccc1O.Cl [1078_5]
d(CA1,O2): 4.88

Source of measurements: patent US12195427B2
